test system: BT474; experiment: Cytotoxicity assay (SRB), BT474; format: cell-based; settings: Homo sapiens, BT-474, 144 h, BT474 cells, 6 days, SRB; read-out: In Vitro Cellular Activity IC50 BT474
Here, each record is paired with measured IC50 data.
State the value, then name its unit.

Take a look at these entries with their results.
>>> print(df.to_string())
                                   compound   result
0  CN(C)CCOc1ccc(N/C=C2\C(=O)NC(=O)c3ccc(Br)cc32)cc1   8.3 µM
1  COC1CCN(Cc2ccc(N/C=C3\C(=O)NC(=O)c4ccc(Br)cc43)cc2)CC1  6.18 µM
2  CN(C)C/C=C/C(=O)N1CCCC1c1ccc(N/C=C2\C(=O)NC(=O)c3ccc(I)cc32)cc1 (centres unmarked)   7.1 µM
3  O=C1NC(=O)c2ccc(Br)cc2/C1=C/Nc1ccc(CN2CCC[C@H]2CO)cc1 (stereo in doubt)   2.9 µM
4  CCC(=O)Nc1cnc(CN/C=C2\C(=O)NC(=O)c3ccc(I)cc32)cc1O     2 µM
5  Nc1cccc(-c2ccc3c(c2)C(=CNCc2ccc(O)c(O)c2)C(=O)NC3=O)c1  25.1 µM
6  Cc1cccc(-c2ccc3c(c2)C(=CNCc2ccc(O)c(O)c2)C(=O)NC3=O)c1  20.3 µM

Then there is this compound:
Record request: IC50 value, item CN1CCN(c2ccc(NC=C3C(=O)NC(=O)c4ccc(-c5cc[nH]c5)cc43)cc2)CC1
8.5 µM

###

test system: HCT-116; test: Cytotoxicity assay (SRB), HCT-116; format: cell-based; conditions: Homo sapiens, HCT-116, 72 h, HCT116 cells, SRB, three days; read-out: In Vitro Cellular Activity IC50 HCT116
reported.property: IC50 (µM)
Give your result in µM as a bare value.

>>> print(df.to_string())
                              sample_smiles  readout_number
0  COc1ccc(CN/C=C2\C(=O)NC(=O)c3ccc(-c4ccoc4)cc32)cc1O             2.5

What measured IC50 goes with C[C@@H]1CN(c2ccc(N/C=C3\C(=O)NC(=O)c4ccc(-c5ccc(F)cc5)cc43)cc2)C[C@H](C)N1 ?
1.1

Report IC50 for O=C1NC(=O)c2ccc(Br)cc2/C1=C/NCCCN1CCOCC1 please.
21

###

molecular target: cyclin E/CDK2 enzyme (Homo sapiens, UniProt P24941); construct: made in house; host or cells: Sf9 insect cells, recombinant baculovirus; assay: CDK2 ELISA kinase assay (phospho-Rb ser 795 detection); format: biochemical; details: In Vitro Enzyme Assay, cyclin E/CDK2, read-out: CDK2 IC50
reported.property: pIC50
Bear in mind: pIC50 is minus log10 of a mol/L concentration; give just that figure.

>>> print(df.to_string())
                              sample_smiles                             tested_target  reported_property  readout_number
0  N#Cc1ccc(-c2ccc3c(c2)C(=CNCc2ccc(O)c(O)c2)C(=O)NC3=O)cc1  cyclin E/CDK2 enzyme (Homo sapiens, UniProt P24941)              pIC50            5.14

Return reported pIC50; argument: O=C1NC(=O)c2ccc(C=Cn3ccnc3)cc2C1=CNCc1ccc(O)c(O)c1
5.40

Recorded pIC50 for O=C1NC(=O)c2ccc(I)cc2/C1=C/NCc1ccc(-c2ccco2)c(O)c1 , please?
5.08
